Recorded values, source PubChem BioAssay (NCI).

Tested on: M14 melanoma
PROTOCOL TEXT: NCI-60 one-dose screen, 48 h (100 = growth as untreated, 0 = no growth, -100 = all killed)
APPLIED CONDITIONS: 10 µM unless noted
About 83,000 compounds went through this panel and 20% of them were active in at least one assay; those are over-represented in the sample as a whole.
Assign growth to each entry below.
Answer format: numeric, % implied, no suffix.

Problem: Given Cc1csc(NC(c2ccccc2)c2c(C)nc3ccccn23)n1 (configuration not stated) , state its recorded growth.
Result: 95.3

Problem: Given O=C(Nc1ccncc1)C(=O)c1cn(S(=O)(=O)c2ccccc2F)c2ccccc12 , state its recorded growth.
Result: 14.8

Problem: Given Nc1ccc(C(=O)CSc2nc3ccccc3[nH]2)cc1 , state its recorded growth.
Result: 108

Problem: Given C=C1CCC2C(C)(CO)C(O)CCC2(C)C1C/C=C1/C(=O)OCC1O/C=C/c1ccccc1 (configuration not stated) , state its recorded growth.
Result: 86.1

Problem: Given CCN1C(=O)N(CC)C2C1NN=c1s/c(=C\c3cccnc3)c(=O)n12 (configuration not stated) , state its recorded growth.
Result: 0.469

Problem: Given NC(=O)CCCN1C/C(=C\c2ccccc2)C(=O)c2ccccc21 , state its recorded growth.
Result: 103

Problem: Given Nc1cccc(-c2nc3sccn3c2-c2ccnc(NCCNS(=O)(=O)c3ccc(C(F)(F)F)cc3)n2)c1 , state its recorded growth.
Result: 53.6

Problem: Given CC(C)(C)n1cc(-c2ccnc(NCCCNS(=O)(=O)c3ccc(C(F)(F)F)cc3)c2)c(-c2cccc(O)c2)n1 , state its recorded growth.
Result: 1.32

Problem: Given Cn1cc(-c2cnc3ccc(NC(=O)Nc4ccc(F)c(Br)c4)cc3n2)cn1 , state its recorded growth.
Result: 4.13

Problem: Given CN(C)c1nc2c(N)ncnc2n1C1OC(CO)C(O)C1O (configuration not stated) , state its recorded growth.
Result: 102

Problem: Given O=S(=O)(c1ccc(OCCO)cc1)c1ccc(OCCO)cc1 , state its recorded growth.
Result: 102

Problem: Given Cc1nc2cncc(C#Cc3cncc(C(=O)Nc4ccc(CN5CCN(C)CC5)c(C(F)(F)F)c4)c3)c2nc1C , state its recorded growth.
Result: -24.8

Problem: Given CC(C)(C)N1CCC1C(N)=O (configuration not stated) , state its recorded growth.
Result: 78.6

Problem: Given COc1ccc(-c2ccc(C)n2-c2ccc(-c3nc4ccccc4s3)cc2)cc1 , state its recorded growth.
Result: 103

Problem: Given CC(C)OC(=O)N1CCOCC1 , state its recorded growth.
Result: 103

Problem: Given Cc1cc(C2(c3cc(C)c(O)cc3C)OS(=O)(=O)c3ccccc32)c(C)cc1O , state its recorded growth.
Result: 108

Problem: Given CCOC(=O)CC(=O)OC , state its recorded growth.
Result: 96.1

Problem: Given COc1cc(NC(=O)SC2=NCCS2)cc(OC)c1 , state its recorded growth.
Result: 103

Problem: Given Nc1nc(=O)c2ccccc2s1 , state its recorded growth.
Result: 107

Problem: Given CN(C)CC(C(=O)c1ccccc1)c1ccccc1 (configuration not stated) , state its recorded growth.
Result: -1.12

Problem: Given COc1cc(/C=C/C(=O)N2CCN(C(=O)/C=C/c3cc(OC)c(OC)c(OC)c3)CC2)cc(OC)c1OC , state its recorded growth.
Result: 97.1

Problem: Given CC(C)(C)n1cc(-c2ccnc(NCCNS(=O)(=O)c3ccc(Cl)cc3)c2)c(-c2cccc(O)c2)n1 , state its recorded growth.
Result: 62.8

* * *

Tested on: RPMI-8226 leukemia
PROTOCOL TEXT: NCI-60 one-dose screen, 48 h
APPLIED CONDITIONS: 10 µM unless noted
About 83,000 compounds went through this panel and 20% of them were active in at least one assay; those are over-represented in the sample as a whole. Active and inactive are the calls of the source. The calls were made as follows: active = growth percent below 10; inactive = the rest.
The reply should be one of these categories: active, inactive

Problem: Outcome? CCN(CC)c1ccc(N=O)cc1
Result: inactive

Problem: Outcome? Cc1ccc2[nH]c(=O)c3c(c2c1)Oc1ncn2nc(-c4ccco4)nc2c1C3c1ccc(Cl)cc1 (centres undefined)
Result: inactive

Problem: Outcome? CCOC(=O)c1ccc2c(c1)c1c(C)c3cccnc3c(C)c1n2C
Result: inactive

Problem: Outcome? COc1cc(-c2nn(-c3cccc(NC(=O)c4ccc(N5CCOCC5)c(C(F)(F)F)c4)c3)cc2-c2ccncc2)ccc1Cl
Result: active

Problem: Outcome? O=C1C2(c3ccccc3)C(c3ccccc3)=C(c3ccccc3)C1(c1ccccc1)C1CC=CC12 (centres undefined)
Result: inactive

Problem: Outcome? COc1cccc(/C=C2\Oc3cc(OCCCN4CCCC4)ccc3C2=O)c1OC
Result: inactive

Problem: Outcome? CN1CCN(Cc2ccc(NC(=O)c3cncc(C#Cc4cnc(N)c5cnccc45)c3)cc2C(F)(F)F)CC1
Result: active

Problem: Outcome? COc1cccc(CC(C)=C(c2ccc(OCCN3CCCCC3)cc2)c2ccc(OCCN3CCCCC3)cc2)c1
Result: active

Problem: Outcome? COc1ccc(-c2c(-c3cc(OC)c4c(c3)OCO4)noc2N)cc1
Result: inactive

* * *

System: CAKI-1 renal
PROTOCOL TEXT: NCI-60 one-dose screen, 48 h (100 = growth as untreated, 0 = no growth, -100 = all killed)
APPLIED CONDITIONS: 10 µM unless noted
This is part of a sample that, as a whole, favours compounds with a hit. Of some 83,000 tested, about 20% had one in any assay.
Hi all, reminder that labels come from growth, split as low bin: < 50%; mid bin: ≥ 50% and < 90%; high bin: ≥ 90%

Problem: Hi there! Could you help me figure out the category for O=C1C(Cl)=C(Nc2ccccn2)C(=O)c2ccccc21 please?
Result: mid bin

Problem: Hi there! Could you help me figure out the category for CCC1=CCC[C@@]2(C)CCC[C@@]3(C)CCCC(C)(C)[C@]1([O-])[O+]32 please?
Result: high bin

Problem: Hi there! Could you help me figure out the category for CN1C(=O)N(C)C2C1NN=c1s/c(=C\C=C\c3ccccc3)c(=O)n12 (stereo not given) please?
Result: low bin

Problem: Hi there! Could you help me figure out the category for COc1ccc(Nc2nc(N)nc3c2CCN(Cc2ccc(OC)cc2OC)C3=O)cc1 please?
Result: high bin

Problem: Hi there! Could you help me figure out the category for CN(C)c1oc(C2OC2c2ccccc2)nc1C#N (stereo not given) please?
Result: high bin

Problem: Hi there! Could you help me figure out the category for O=C(C1=Cc2cc3ccccc3n2Cc2cnnn21)c1ccccc1 please?
Result: mid bin

Problem: Hi there! Could you help me figure out the category for O=C(NNC(=S)Nc1ccccc1)c1cc2ccc1CCc1ccc(cc1)CC2 please?
Result: mid bin

Problem: Hi there! Could you help me figure out the category for CCOC(=O)c1cc(C(=O)c2cc(OC)c(OC)c(OC)c2)n2c1ccc1ccccc12 please?
Result: low bin

Problem: Hi there! Could you help me figure out the category for COc1ccc(S(=O)(=O)n2cc(C(=O)C(=O)Nc3ccncc3)c3ccccc32)cc1F please?
Result: mid bin

Problem: Hi there! Could you help me figure out the category for Oc1ccccc1/C=N/NC(=S)NC1CC2C=CC1C2 (stereo not given) please?
Result: mid bin

Problem: Hi there! Could you help me figure out the category for COC(=O)c1cc(=O)nc(N/N=C/c2ccco2)s1 please?
Result: high bin

Problem: Hi there! Could you help me figure out the category for CC1(C)C(=O)/C(=C\c2ccc(C(F)(F)F)cc2)C[C@]2(C)[C@H]3CC[C@@H]4[C@H]5[C@H](C(=O)/C=C/c6ccc(C(F)(F)F)cc6)CC[C@]5(CO)CC[C@@]4(C)[C@]3(C)CC[C@@H]12 please?
Result: mid bin

Problem: Hi there! Could you help me figure out the category for CCN(CC)CCC(CNc1ccnc2cc(Cl)ccc12)c1ccc(Cl)cc1 (stereo not given) please?
Result: low bin

Problem: Hi there! Could you help me figure out the category for COc1ccc(/C=C\c2cc(OC)c(OC)c(OC)c2)cc1OC(=O)c1cccc(Cn2cc(CCOC(=O)c3cccc(Cn4nnc5c4C(=O)c4ccccc4C5=O)c3)nn2)c1 please?
Result: low bin

Problem: Hi there! Could you help me figure out the category for COc1ccc(NC(=O)c2cc(OC)c(OC)c(OC)c2)cc1O please?
Result: low bin

Problem: Hi there! Could you help me figure out the category for Nc1ccc(C(=O)CSc2nc3ccccc3[nH]2)cc1 please?
Result: high bin

Problem: Hi there! Could you help me figure out the category for COc1cccc(CC(C)=C(c2ccc(OCCN3CCCCC3)cc2)c2ccc(OCCN3CCCCC3)cc2)c1 please?
Result: low bin

* * *

System: ACHN renal
PROTOCOL TEXT: NCI-60 one-dose screen, 48 h (100 = growth as untreated, 0 = no growth, -100 = all killed)
APPLIED CONDITIONS: 10 µM unless noted
Protocol: Growth inhibition of the ACHN human tumor cell line is measured as a screen for anti-cancer activity. Cells are grown in 96 well plates and exposed to the test compound for 48 hours. Compounds are tested at a single concentration, which is 10^-5 M for most compounds. The reported endpoint is percent growth (GI% or GIPRCNT), where numbers from 0 - 100% represent growth inhibition, and numbers from -100% - 0 represent cell death. For example, a value of 40 represents 60% growth inhibition. […]
About 83,000 compounds went through this panel and 20% of them were active in at least one assay; those are over-represented in the sample as a whole. The source made the active and inactive calls. How the source made its calls: active means growth percent below 10; inactive means the rest.
READOUT KIND: growth

Problem: Given COc1cc(-c2nn(-c3cccc(NC(=O)Nc4cc(C(F)(F)F)cc(C(F)(F)F)c4)c3)cc2-c2ccncc2)ccc1Cl , state its recorded growth.
Result: 10.5% (inactive)

Problem: Given COc1cc(/C(C#N)=C/c2ccc3c(c2OC)OCO3)cc2c1OCO2 , state its recorded growth.
Result: 51.6% (inactive)

Problem: Given NC(N)=N/N=C/c1ccc(-c2ccc(-c3cc(Cl)cc(Cl)c3)s2)cc1 , state its recorded growth.
Result: -2.94% (active)

Problem: Given CCN(CC)CCOc1ccc(/C(=C(/C)c2ccccc2)c2ccc(OC(C)=O)cc2)cc1 , state its recorded growth.
Result: 111% (inactive)

Problem: Given COc1ccc(N2CCN(Cc3cc(C(=O)/C=C/c4c[nH]c5ccccc45)ccc3O)CC2)cc1 , state its recorded growth.
Result: 97.4% (inactive)
